Source: PubChem BioAssay (Tox21)

Biological target: Cytochrome P450 3A4 (Homo sapiens) (UniProt P08684)
Sequence (P08684 whole entry, looked up): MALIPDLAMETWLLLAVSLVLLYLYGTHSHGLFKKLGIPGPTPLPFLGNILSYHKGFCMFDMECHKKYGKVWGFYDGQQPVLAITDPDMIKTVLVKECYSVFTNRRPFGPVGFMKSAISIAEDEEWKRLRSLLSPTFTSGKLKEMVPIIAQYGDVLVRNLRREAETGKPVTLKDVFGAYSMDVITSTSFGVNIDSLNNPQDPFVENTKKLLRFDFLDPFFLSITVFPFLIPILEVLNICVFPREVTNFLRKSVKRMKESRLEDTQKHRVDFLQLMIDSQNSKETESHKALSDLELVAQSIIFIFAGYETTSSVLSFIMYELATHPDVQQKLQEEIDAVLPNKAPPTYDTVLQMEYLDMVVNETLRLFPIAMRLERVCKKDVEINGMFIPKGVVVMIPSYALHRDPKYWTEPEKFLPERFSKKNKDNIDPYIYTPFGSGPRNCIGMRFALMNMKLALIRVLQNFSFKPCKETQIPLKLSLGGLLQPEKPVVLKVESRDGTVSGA
Assay: Cytochrome P450 Family 3 Subfamily A Member 4 (CYP3A4) small molecule antagonists: luciferase reporter qHTS assay (AID 1671201); also: nearly all actives have a fitted effect of over 50% in size
Details: P450-Glo CYP3A4 enzyme, luciferin luminescence, 1 h; series mostly up to 115 µM
Records with an inconclusive call do not appear. Activity calls are given as the source filed them. Calls follow the shape of the dose curve; as a rule, active = well fitted inhibition curve with a large enough effect in the repeat runs; inconclusive = weak or mixed curves; inactive = no such curve, though single readings can be large or run the other way.
Outcome codes: active, inactive

{"ENTRY_SMILES": "C=Cc1ccc(C)cc1", "CLASS_NAME": "inactive"}
{"ENTRY_SMILES": "O=C1C(c2[nH]c3ccccc3c2O)=Nc2ccccc21", "CLASS_NAME": "inactive"}
{"ENTRY_SMILES": "C[C@]12CC[C@@H]3c4ccc(O)cc4CC[C@H]3[C@@H]1C[C@@H](O)[C@@H]2O", "CLASS_NAME": "inactive"}
{"ENTRY_SMILES": "O=C(O)Cn1c(=O)n(Cc2ccc(Br)cc2F)c(=O)c2ccc(Cl)cc21", "CLASS_NAME": "inactive"}
{"ENTRY_SMILES": "C=CCCCCCCCCC(=O)O", "CLASS_NAME": "inactive"}
{"ENTRY_SMILES": "CCCCCCCCCCCCCCCC(=O)OC(C)C", "CLASS_NAME": "inactive"}
{"ENTRY_SMILES": "C=CC(=O)OCCC(=O)O", "CLASS_NAME": "inactive"}
{"ENTRY_SMILES": "CCOC(=O)c1ccc(N)cc1", "CLASS_NAME": "inactive"}
{"ENTRY_SMILES": "C=C(C)[C@H]1CC=C(C)C(=O)C1", "CLASS_NAME": "inactive"}
{"ENTRY_SMILES": "COc1ccc(N)c(C)c1", "CLASS_NAME": "active"}
{"ENTRY_SMILES": "CCO[Si](CCC#N)(OCC)OCC", "CLASS_NAME": "inactive"}
{"ENTRY_SMILES": "CC(C)CCCCCCCOC(=O)CCCCC(=O)OCCCCCCCC(C)C", "CLASS_NAME": "inactive"}
{"ENTRY_SMILES": "O=C1CCCC1", "CLASS_NAME": "inactive"}
{"ENTRY_SMILES": "C=C(C)CNCC", "CLASS_NAME": "inactive"}

* * *

Test: qHTS assay to identify small molecule agonists of the retinoic acid receptor (RAR) signaling pathway (AID 1159553)
Conditions: C3RL4 RARE luciferase reporter, agonist, 6 h; series mostly up to 73.3 µM
Inconclusive results are not listed. Calls of active or inactive are those of the source. The call rests on the fitted dose curve; in most records, active means well fitted activation curve with a large enough effect in the repeat runs; inconclusive means weak or mixed curves, or effect the other way; inactive means no such curve, though single readings can be large or run the other way.
Labels: active, inactive

{"COMPOUND": "O=S(=O)(O)c1ccccc1", "CLASS_NAME": "inactive"}
{"COMPOUND": "c1ccc(Oc2ccccc2)cc1", "CLASS_NAME": "inactive"}
{"COMPOUND": "CC1(C)S[C@@H]2[C@H](NC(=O)COc3ccccc3)C(=O)N2[C@H]1C(=O)O", "CLASS_NAME": "inactive"}
{"COMPOUND": "CCNc1ccccc1", "CLASS_NAME": "inactive"}
{"COMPOUND": "c1ccc2c(c1)Cc1ccccc1-2", "CLASS_NAME": "inactive"}
{"COMPOUND": "CC(C)CC(=O)CC(C)CC(C)C (stereo not given)", "CLASS_NAME": "inactive"}
{"COMPOUND": "CC(=O)OC1CC(C)OC(C)O1 (stereo not given)", "CLASS_NAME": "inactive"}
{"COMPOUND": "O=C(O)c1ccccc1C(=O)O", "CLASS_NAME": "inactive"}
{"COMPOUND": "CC(C)CCCCCCCOC(=O)CCCCC(=O)OCCCCCCCC(C)C", "CLASS_NAME": "inactive"}
{"COMPOUND": "CN(C)c1ccc(Cc2ccc(N(C)C)cc2)cc1", "CLASS_NAME": "inactive"}
{"COMPOUND": "NCCN1CCNCC1", "CLASS_NAME": "inactive"}
{"COMPOUND": "CCCCCCO", "CLASS_NAME": "inactive"}
{"COMPOUND": "CCCCCCCCCCCCCCCCO", "CLASS_NAME": "inactive"}
{"COMPOUND": "CC(C)(C)c1cc(Cc2cc(C(C)(C)C)c(O)c(C(C)(C)C)c2)cc(C(C)(C)C)c1O", "CLASS_NAME": "inactive"}
{"COMPOUND": "Nc1nc(N)nc(-c2ccccc2)n1", "CLASS_NAME": "inactive"}
{"COMPOUND": "O=S(=O)(O)c1ccc(N=Nc2c(O)ccc3cc(S(=O)(=O)O)ccc23)cc1", "CLASS_NAME": "inactive"}
{"COMPOUND": "CCNc1cccc(C)c1", "CLASS_NAME": "inactive"}
{"COMPOUND": "CC(C)=CCl", "CLASS_NAME": "inactive"}
{"COMPOUND": "CCCCCC(=O)O", "CLASS_NAME": "inactive"}
{"COMPOUND": "CC(=O)Oc1ccc(C)cc1", "CLASS_NAME": "inactive"}
{"COMPOUND": "CC(=O)CC(C)(C)O", "CLASS_NAME": "inactive"}
{"COMPOUND": "CCCCCCCCCCN", "CLASS_NAME": "inactive"}
{"COMPOUND": "CC(=O)CCC=C(C)C", "CLASS_NAME": "inactive"}
{"COMPOUND": "CCCCCCCO", "CLASS_NAME": "inactive"}
{"COMPOUND": "COc1ccc([N+](=O)[O-])cc1N", "CLASS_NAME": "inactive"}
{"COMPOUND": "CC(=O)OCc1ccco1", "CLASS_NAME": "inactive"}
{"COMPOUND": "O=C(O)Cn1c(=O)n(Cc2ccc(Br)cc2F)c(=O)c2ccc(Cl)cc21", "CLASS_NAME": "inactive"}
{"COMPOUND": "Cc1ccc([N+](=O)[O-])cc1S(=O)(=O)O", "CLASS_NAME": "inactive"}
{"COMPOUND": "O=C(O)c1ccc(S(=O)(=O)N(Cl)Cl)cc1", "CLASS_NAME": "inactive"}
{"COMPOUND": "COCCOC(=O)c1ccccc1C(=O)OCCOC", "CLASS_NAME": "inactive"}
{"COMPOUND": "CC(CCl)OP(=O)(OC(C)CCl)OC(C)CCl (stereo not given)", "CLASS_NAME": "inactive"}
{"COMPOUND": "C=C(C)CNCC", "CLASS_NAME": "inactive"}
{"COMPOUND": "CCCCC(C=O)CC (stereo not given)", "CLASS_NAME": "inactive"}
{"COMPOUND": "NCCCCCCN", "CLASS_NAME": "inactive"}
{"COMPOUND": "COc1ccc(CCC(C)=O)cc1", "CLASS_NAME": "inactive"}
{"COMPOUND": "OCc1ccccc1", "CLASS_NAME": "inactive"}
{"COMPOUND": "O=C(O)c1ccc(C(=O)O)c(C(=O)O)c1", "CLASS_NAME": "inactive"}
{"COMPOUND": "Nc1ccc(Cl)c(N)c1", "CLASS_NAME": "active"}
{"COMPOUND": "CCCCCCC=O", "CLASS_NAME": "inactive"}
{"COMPOUND": "Clc1ccccn1", "CLASS_NAME": "inactive"}
{"COMPOUND": "O=C(O)c1cc2ccccc2cc1O", "CLASS_NAME": "inactive"}
{"COMPOUND": "Cc1ccc(C(C)C)c(O)c1", "CLASS_NAME": "inactive"}
{"COMPOUND": "CCCCCCCCCCO", "CLASS_NAME": "inactive"}
{"COMPOUND": "CN(C)CCOC(=O)COc1ccc(Cl)cc1", "CLASS_NAME": "inactive"}
{"COMPOUND": "CC(C)c1cccc(C(C)C)c1", "CLASS_NAME": "inactive"}
{"COMPOUND": "Cc1ccc2ncccc2c1", "CLASS_NAME": "inactive"}
{"COMPOUND": "CCOC(=O)n1ccn(C)c1=S", "CLASS_NAME": "inactive"}
{"COMPOUND": "COC(=O)CCCC(=O)OC", "CLASS_NAME": "inactive"}
{"COMPOUND": "CC(O)CC(C)(C)O (stereo not given)", "CLASS_NAME": "inactive"}
{"COMPOUND": "O=c1[nH]cnc2[nH]ncc12", "CLASS_NAME": "inactive"}

* * *

Experiment: Caspase-3/7 induction in CHO-K1 cells by small molecules, qHTS assay (AID 1346980); also: nearly all actives have a fitted effect of over 15% in size
Settings: CHO-K1 caspase-3/7 induction, Caspase-Glo luminescence, 17 h; series mostly up to 92.4 µM
From the text: National Center for Advancing Translational Sciences [NCATS] NIH Chemical Genomics Center [NCGC] U.S. Environmental Protection Agency [EPA] National Institutes of Environmental Health Sciences [NIEHS] National Toxicology Program [NTP] Apoptosis is a process of programmed cell death and plays a central role in the development of multicellular organisms. […]
Activity calls are given as the source filed them. Calls come from the whole dose curve; as a rule, active = well fitted activation curve with a large enough effect in the repeat runs; inconclusive = weak or mixed curves; inactive = flat fitted curve, though single readings scatter.

{"COMPOUND": "C=C(C)[C@H]1CC=C(C)C(=O)C1", "outcome": "inactive"}
{"COMPOUND": "OC1C(O)C(O)C(O)C(O)C1O (stereo not drawn)", "outcome": "inactive"}
{"COMPOUND": "CC(O)CC(C)(C)O (stereo not drawn)", "outcome": "inactive"}
{"COMPOUND": "COc1ccc(N)c(C)c1", "outcome": "inactive"}
{"COMPOUND": "OCc1ccccc1", "outcome": "inactive"}
{"COMPOUND": "OCc1cccc(Oc2ccccc2)c1", "outcome": "inactive"}
{"COMPOUND": "CNC(=S)N(C)C", "outcome": "inactive"}
{"COMPOUND": "CC1(C)CC(N)CC(C)(CN)C1 (stereo not drawn)", "outcome": "inactive"}
{"COMPOUND": "CC(C)(C#N)c1cc(Cn2cncn2)cc(C(C)(C)C#N)c1", "outcome": "inactive"}
{"COMPOUND": "C[C@]12CCC(=O)C=C1CC[C@@H]1[C@@H]2[C@@H](O)C[C@@]2(C)[C@H]1CC[C@]2(O)C(=O)CO", "outcome": "inactive"}
{"COMPOUND": "O=[N+]([O-])c1ccc2nc[nH]c2c1", "outcome": "inactive"}
{"COMPOUND": "C[C@]12CC[C@@H]3c4ccc(O)cc4CC[C@H]3[C@@H]1C[C@@H](O)[C@@H]2O", "outcome": "inactive"}
{"COMPOUND": "CC(C)CCCCCCCOC(=O)CCCCC(=O)OCCCCCCCC(C)C", "outcome": "inactive"}
{"COMPOUND": "CC(C)OP(=O)(CP(=O)(OC(C)C)OC(C)C)OC(C)C", "outcome": "inactive"}
{"COMPOUND": "COc1cc(OC)c(C(=O)CCCN2CCCC2)c(OC)c1", "outcome": "inactive"}
{"COMPOUND": "CCCCC(C=O)CC (stereo not drawn)", "outcome": "inactive"}
{"COMPOUND": "CCCCCCC=O", "outcome": "inactive"}
{"COMPOUND": "CCOC(=O)c1ccc(N)cc1", "outcome": "inactive"}
